Numbers sourced from paper PMC5540273.

Tested on: TRPM6
test_settings: concentration: 1 μM, replicates: in singlicate; n = 1;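 also: KINOMEscan kinase panel screen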
Provide the reported %Inh of each item.
Write the answer as a number in %, unit excluded.

-- ask API: value(readout=%Inh, system=TRPM6) for record `O=C(Nc1cccc(-c2nn3ccccc3c2-c2ccnc(Nc3cccc(C(F)(F)F)c3)n2)c1)c1c(F)cccc1F`
-- reply 11

-- ask API: value(readout=%Inh, system=TRPM6) for record `Cn1cc(-c2ccc3c(c2)CCN3C(=O)Cc2cccc(F)c2)c2c(N)ncnc21`
-- reply 0

-- ask API: value(readout=%Inh, system=TRPM6) for record `c1ccc(Oc2ccc(Nc3ccnc4cc(-c5ccc(CNCCN6CCOCC6)o5)ccc34)cc2)nc1`
-- reply 14

-- ask API: value(readout=%Inh, system=TRPM6) for record `CN1CCN(Cc2cccc(-c3ccc4c(Nc5ccc(Oc6ccccc6)cc5)ccnc4c3)c2)CC1`
-- reply 39

-- ask API: value(readout=%Inh, system=TRPM6) for record `O=C(Nc1n[nH]c2nc(-c3ccc(O)cc3)ccc12)C1CC1`
-- reply 0

-- ask API: value(readout=%Inh, system=TRPM6) for record Cl.Cl.NCC(NCc1ccc(-c2ccnc3[nH]ccc23)s1)c1ccccc1 (centres unmarked)
-- reply 0

-- ask API: value(readout=%Inh, system=TRPM6) for record O=C(NC1CCN(c2ccnc(Nc3ccc(F)cc3)n2)C1)c1cc2ccccc2s1 (centres unmarked)
-- reply 22

-- ask API: value(readout=%Inh, system=TRPM6) for record `Fc1ccc(-c2ncn(C3CCNCC3)c2-c2ccnc(Oc3ccc(-c4ccccc4)cc3)n2)cc1`
-- reply 19

-- ask API: value(readout=%Inh, system=TRPM6) for record `Oc1cc(Nc2ccnc3cc(I)ccc23)ccc1F`
-- reply 26

-- ask API: value(readout=%Inh, system=TRPM6) for record `Cc1cccc(NC(=O)Nc2ccc(Oc3ncnc4ccn(C)c34)cc2)c1`
-- reply 0

-- ask API: value(readout=%Inh, system=TRPM6) for record `Nc1ncnc2c1nc(-c1ccccc1)n2-c1ccccc1`
-- reply 50

-- ask API: value(readout=%Inh, system=TRPM6) for record COc1cc(Nc2nccc(N3CCC(NC(=O)c4cc5ccccc5s4)C3)n2)cc(OC)c1OC (centres unmarked)
-- reply 17

-- ask API: value(readout=%Inh, system=TRPM6) for record Cc1ccc(C)c(NC(=O)NC2CCN(c3ccnc(Nc4ccc(F)cc4)n3)C2)c1 (centres unmarked)
-- reply 14

-- ask API: value(readout=%Inh, system=TRPM6) for record `O=C(O)C(F)(F)F.O=C(O)C(F)(F)F.O=c1[nH]ccc2nc(N[C@@H]3CCCNC3)nc(Nc3ccc(S(=O)(=O)N4CCOCC4)cc3)c12`
-- reply 19

-- ask API: value(readout=%Inh, system=TRPM6) for record `Nc1n[nH]c2cnc(-c3ccccc3)cc12`
-- reply 9

-- ask API: value(readout=%Inh, system=TRPM6) for record `O=C(Nc1n[nH]c2cc(-c3ccoc3)ccc12)C1CC1`
-- reply 0

-- ask API: value(readout=%Inh, system=TRPM6) for record `COc1ccc(CNC(=O)NC2CCN(c3ccnc(Nc4ccc(F)cc4)n3)CC2)cc1`
-- reply 0

---

Provide the reported %Inh of each item.
Test system: PIP5K1C
test_settings: concentration: 1 μM, replicates: in singlicate; n = 1
Show the value, then the unit it is measured in.

-- ask Which %Inh is listed for Clc1ccc(-c2nn3ncccc3c2-c2ccnc(Nc3ccc4c(c3)OCCO4)n2)cc1 [GW829116] ?
-- reply 0%

-- ask Which %Inh is listed for O=C(Nc1ccccc1F)NC1CCN(c2ccnc(Nc3ccc(F)cc3)n2)CC1 [GSK1379800] ?
-- reply 47%

-- ask Which %Inh is listed for CNC(=O)c1ccccc1Nc1nc(Nc2ccc(N3CCOCC3)cc2)ncc1Cl.Cl [GSK1576028] ?
-- reply 0%

-- ask Which %Inh is listed for CC(C)c1nc(-c2cccc(NS(=O)(=O)c3c(F)cccc3F)c2F)c(-c2ccnc(Nc3ccc(N4CCOCC4)nc3)n2)s1 [GSK2008607] ?
-- reply 45%

-- ask Which %Inh is listed for COc1cc(Nc2nccc(-c3c(-c4cccc(NC(=O)c5c(F)cccc5F)c4)nn4ncccc34)n2)cc(OC)c1OC [GSK327238] ?
-- reply 19%

-- ask Which %Inh is listed for COc1cc(Nc2nccc(N3CCC(NC(=O)Nc4cccc(C(C)=O)c4)C3)n2)cc(OC)c1OC (centres unmarked) [GSK1379753] ?
-- reply 46%

-- ask Which %Inh is listed for COc1ccc(Nc2nccc(NCCNC(=O)c3cc4ccccc4s3)n2)cc1 [GSK1379896] ?
-- reply 48%

-- ask Which %Inh is listed for Cl.Cl.NCC(NC(=O)c1cc(-c2ccccc2)c(-c2ccnc3[nH]ccc23)s1)c1ccccc1 (centres unmarked) [GSK1321561] ?
-- reply 50%
